Target: T1, soluble human FcRn (shFcRn) (human, UniProt P55899 24-297; P61769 21-119)
T1 construct: Biotinylated for the ELISA, amine-coupled to a CM5 chip for SPR; also called biotinylated shFcRn
T1 sequence (P55899 24-297 limits assumed, chain 1 of 2): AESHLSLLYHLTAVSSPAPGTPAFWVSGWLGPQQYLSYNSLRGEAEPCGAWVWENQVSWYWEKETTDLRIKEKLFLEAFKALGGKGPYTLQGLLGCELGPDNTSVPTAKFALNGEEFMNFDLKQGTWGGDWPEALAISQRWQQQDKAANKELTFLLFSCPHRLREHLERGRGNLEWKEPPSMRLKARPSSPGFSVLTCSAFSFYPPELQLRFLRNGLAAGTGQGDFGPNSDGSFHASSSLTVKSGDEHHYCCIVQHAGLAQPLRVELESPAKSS
T1 sequence (P61769 21-119 limits assumed, chain 2 of 2): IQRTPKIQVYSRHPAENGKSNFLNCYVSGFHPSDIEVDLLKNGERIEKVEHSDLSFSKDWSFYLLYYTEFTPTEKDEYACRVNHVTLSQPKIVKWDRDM
Test: IgG competition ELISA
Bridge positions count the residues as written; N and C are the ends. Square brackets hold non-standard residues; d marks the D form. Ends that are not written are not given here. NMeL = CN[C@@H](CC(C)C)C(=O)O; Pen = CC(C)(S)[C@H](N)C(=O)O; Sar = CNCC(=O)O
Entries and their measured IC50 follow.
The response must be a number in nM with no trailing unit.

>  <BINDER>
QRF[Pen]TGHFGG[NMeL]YPCNGP-NH2 (disulfide 4-14; N-terminus assumed; SMILES CC(C)C[C@H]1C(=O)N[C@@H](Cc2ccc(O)cc2)C(=O)N2CCC[C@H]2C(=O)N[C@H](C(=O)N[C@@H](CC(N)=O)C(=O)NCC(=O)N2CCC[C@H]2C(N)=O)CSSC(C)(C)[C@H](NC(=O)[C@H](Cc2ccccc2)NC(=O)[C@H](CCCNC(=N)N)NC(=O)[C@@H](N)CCC(N)=O)C(=O)N[C@@H]([C@@H](C)O)C(=O)NCC(=O)N[C@@H](Cc2c[nH]cn2)C(=O)N[C@@H](Cc2ccccc2)C(=O)NCC(=O)NCC(=O)N1C) [Peptide No. 113]

>  <REPORTED_PROPERTY>
IC50

>  <REPORTED_VALUE>
1600

$$$$

# ---- query binder ----
Look up and report measured IC50 for this entry: QRF[Pen]TGHFG[Sar]LYPCNGP-NH2 (disulfide 4-14; N-terminus assumed; SMILES CC(C)C[C@@H]1NC(=O)CN(C)C(=O)CNC(=O)[C@H](Cc2ccccc2)NC(=O)[C@H](Cc2c[nH]cn2)NC(=O)CNC(=O)[C@H]([C@@H](C)O)NC(=O)[C@@H](NC(=O)[C@H](Cc2ccccc2)NC(=O)[C@H](CCCNC(=N)N)NC(=O)[C@@H](N)CCC(N)=O)C(C)(C)SSC[C@@H](C(=O)N[C@@H](CC(N)=O)C(=O)NCC(=O)N2CCC[C@H]2C(N)=O)NC(=O)[C@@H]2CCCN2C(=O)[C@H](Cc2ccc(O)cc2)NC1=O) [Peptide No. 112] 900

The values you see were collected from patent US20110059889A1.
